Data origin: the NIST ThermoML archive (doi:10.1021/acs.jced.9b00375)

# recorded.conditions: 298.15 K; 101.3 kPa; Liquid; Vibrating tube method
Mark 0 (no) for mass density values under 800 kg/m3, and 1 (yes) for everything at or above.

molecule	classification
NCCO.O=CO [2-hydroxyethylammonium formate]	1 (yes)

## Input Tell me whether mass density is at least 800 kg/m3 here: CCCCCCC
## Output 0 (no)

## Input Test whether the molecule CCCCCC records mass density of 800 kg/m3 or higher.
## Output 0 (no)

## Input Can CCCCCCCC be said to have mass density at or above 800 kg/m3?
## Output 0 (no)

## Input API: above_or_equal(metric=mass density, cutoff=800 kg/m3) for item CCCCC
## Output 0 (no)
